The measurements presented in this section are drawn from PubChem BioAssay.

Recorded inhibition by entry
ASSAY_TARGET: L-lactate dehydrogenase (Plasmodium falciparum (isolate CDC / Honduras))
PROTOCOL_DETAILS: PfLDH activity inhibition – cell lysate, 3D7 strain, counter-screen for P. falciparum growth inhibition project (AID 2304);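 also: 0% = vehicle and 100% = reference inhibitor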
TEST_CONDITIONS: P. falciparum 3D7 crude extract, LDH APAD/NBT absorbance; at 2 µM; stronger effect = higher value
State just the number; it will be interpreted in %.

# COMPOUND, UNITS_SYMBOL, inhibition
measured = [
    ("Cc1ccc2[nH]c3c(NCCCN4CCOCC4)ncnc3c2c1", "%", -3),
    ("Cc1noc(NC(=O)c2sc3ccccc3c2O)c1C", "%", 0),
    ("CS(=O)(=O)c1ccc(CNCc2cccc(-c3cccc(-c4nc5ccccc5[nH]4)c3)c2)cc1", "%", -7),
    ("CCC[C@@H]([C@@H](CC1CCCCC1)C(=O)N[C@H](C(=O)Nc1nccs1)C(C)(C)SC)N(O)C=O", "%", 7),
    ("N#Cc1ccc(N2CCN(Cc3cccc(-c4ccc(-c5nc6ccc(C(F)(F)F)cc6[nH]5)s4)c3)CC2)nc1", "%", -4),
]

Field: next compound
Request the reported inhibition associated with O=S(=O)(NCCN1CCCC1)c1ccc(-c2ccc(CNCc3ccc(F)cc3)cc2)cc1
4

====

ASSAY_TARGET: Calcium-dependent protein kinase 1 (Plasmodium falciparum (isolate 3D7)) (UniProt P62344)
Sequence (P62344 whole entry, looked up): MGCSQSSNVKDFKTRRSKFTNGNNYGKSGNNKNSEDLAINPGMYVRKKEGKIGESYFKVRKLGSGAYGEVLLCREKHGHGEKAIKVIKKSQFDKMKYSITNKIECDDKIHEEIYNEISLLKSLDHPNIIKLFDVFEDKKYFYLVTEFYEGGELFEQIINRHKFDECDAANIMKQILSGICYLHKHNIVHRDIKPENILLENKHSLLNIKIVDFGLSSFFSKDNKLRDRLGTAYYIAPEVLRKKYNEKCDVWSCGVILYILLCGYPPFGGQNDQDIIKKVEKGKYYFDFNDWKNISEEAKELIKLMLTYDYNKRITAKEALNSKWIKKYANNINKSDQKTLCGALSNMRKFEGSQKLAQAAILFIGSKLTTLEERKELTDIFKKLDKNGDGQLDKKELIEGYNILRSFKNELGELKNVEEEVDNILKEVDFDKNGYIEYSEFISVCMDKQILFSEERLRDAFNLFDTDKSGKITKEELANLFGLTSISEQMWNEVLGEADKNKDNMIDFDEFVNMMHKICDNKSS
PROTOCOL_DETAILS: PfCDPK1 kinase inhibitors, biochemical, TCAMS library (AID 1159585);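 also: inhibitors leave more ATP so luminescence rises with inhibition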
TEST_CONDITIONS: recombinant PfCDPK1, Kinase-Glo ATP depletion luminescence
Entries with a potency or affinity are not part of this list. Activity calls are given as the source filed them. The limit is not given here; nearly all actives have IC50 up to about 0.98 µM.
PROPERTY_NAME: outcome

# MOLECULE, outcome
rows = [
    ("O=C(CCc1nc2c(cnn2-c2ccccc2)c(=O)[nH]1)NC1CCSc2ccccc21 (stereo not given)", "inactive"),
    ("O=C(Nc1cccc(-c2cccc(-c3nc4ccc(F)cc4[nH]3)c2)c1)c1ccncc1", "inactive"),
    ("CN1CCCC1CCNc1ncc2c(-c3ccc(NC(=O)Nc4cc(C(F)(F)F)ccc4F)c(F)c3)nn(C)c2n1 (stereo not given)", "inactive"),
    ("CCCCCN1CCCCC(NS(=O)(=O)c2ccc(C(=O)Nc3cccc(C(F)(F)F)c3)cc2)C1 (stereo not given)", "inactive"),
]

Lab note: need outcome for COc1c(C2CCN(CCCCNC(=O)c3ccc(-c4ccc(C(=O)C(F)(F)F)cc4)cc3)CC2)ccc2c1CCCC2 on Calcium-dependent protein kinase 1 (Plasmodium falciparum (isolate 3D7)) (UniProt P62344), anyone have it?
inactive

Lab note: need outcome for CC(C)(C)CC(=O)Nc1ccc(Nc2cc(-c3ccncc3)cc3ncc(C(N)=O)cc23)cc1 on Calcium-dependent protein kinase 1 (Plasmodium falciparum (isolate 3D7)) (UniProt P62344), anyone have it?
inactive

Lab note: need outcome for CCOc1cc2ncnc(Nc3cc(Cl)c(Cl)c(Cl)c3)c2cc1OCC on Calcium-dependent protein kinase 1 (Plasmodium falciparum (isolate 3D7)) (UniProt P62344), anyone have it?
inactive

Lab note: need outcome for C=CCOC(=O)N1CCC(CNCc2cccc(-c3cccc(-c4nc5c(C)cccc5[nH]4)c3)c2)C1 (stereo not given) on Calcium-dependent protein kinase 1 (Plasmodium falciparum (isolate 3D7)) (UniProt P62344), anyone have it?
inactive

Lab note: need outcome for CCOc1ccnc(=O)[nH]1 on Calcium-dependent protein kinase 1 (Plasmodium falciparum (isolate 3D7)) (UniProt P62344), anyone have it?
inactive

Lab note: need outcome for CC1CCCCN1CCCNc1nc(NCc2ccccc2)c2ccccc2n1 (stereo not given) on Calcium-dependent protein kinase 1 (Plasmodium falciparum (isolate 3D7)) (UniProt P62344), anyone have it?
inactive

Lab note: need outcome for COc1cc2[nH]c(-c3ccc(O)cc3)c(C)c(=O)c2c(OC)c1OC on Calcium-dependent protein kinase 1 (Plasmodium falciparum (isolate 3D7)) (UniProt P62344), anyone have it?
inactive

Lab note: need outcome for COc1ccc(-c2nc(NC(=O)CS(=O)(=O)c3ccc(OC)cc3)sc2C)cc1 on Calcium-dependent protein kinase 1 (Plasmodium falciparum (isolate 3D7)) (UniProt P62344), anyone have it?
inactive

Lab note: need outcome for CC(=O)Nc1cccc(/C=C/C(=O)N2CCC(N3CCCCC3)CC2)c1 on Calcium-dependent protein kinase 1 (Plasmodium falciparum (isolate 3D7)) (UniProt P62344), anyone have it?
inactive

Lab note: need outcome for CC(C)CCN(Cc1cncn1Cc1cccc(Cl)c1)C(=O)c1cncc(-c2ccccc2)c1 on Calcium-dependent protein kinase 1 (Plasmodium falciparum (isolate 3D7)) (UniProt P62344), anyone have it?
inactive

Lab note: need outcome for O=C(/C=C/c1ccc(Cl)c(Cl)c1)NCCCCCN1CCCN(C(=O)Nc2ccc(F)c(Cl)c2)CC1 on Calcium-dependent protein kinase 1 (Plasmodium falciparum (isolate 3D7)) (UniProt P62344), anyone have it?
inactive

Lab note: need outcome for CN(C(=O)c1nn(-c2ccccn2)c2nccc(-c3cccs3)c12)C1CCCCC1 on Calcium-dependent protein kinase 1 (Plasmodium falciparum (isolate 3D7)) (UniProt P62344), anyone have it?
inactive

Lab note: need outcome for O=[N+]([O-])c1cccc(CNC2CCN(Cc3ccc(Cl)c(Cl)c3)CC2)c1 on Calcium-dependent protein kinase 1 (Plasmodium falciparum (isolate 3D7)) (UniProt P62344), anyone have it?
inactive

Lab note: need outcome for COc1ccc(C2C(C(=O)Nc3ccc(C)cc3Br)c3ccccc3C(=O)N2C)cc1 (stereo not given) on Calcium-dependent protein kinase 1 (Plasmodium falciparum (isolate 3D7)) (UniProt P62344), anyone have it?
inactive

Lab note: need outcome for O=C(NC(=S)Nc1cc(C(F)(F)F)cc(C(F)(F)F)c1)c1ccc(Cl)cc1 on Calcium-dependent protein kinase 1 (Plasmodium falciparum (isolate 3D7)) (UniProt P62344), anyone have it?
inactive

Lab note: need outcome for CC(C)(C)COC(=O)c1ccc(NC(=O)N[C@@H](Cc2ccc(O)cc2)C(=O)NC2CCN(Cc3ccc(O)cc3)C2)cc1 (stereo not given in full) on Calcium-dependent protein kinase 1 (Plasmodium falciparum (isolate 3D7)) (UniProt P62344), anyone have it?
inactive
